test: Human cryopreserved hepatocyte stability assay; type: in vitro ADME; details: cryopreserved hepatocytes
value type: half-life (min)

- O=c1ccc2ccccc2o1: 13
